Where do these numbers come from? They come from patent US20180339041A1.

Biological target: T1, C-terminally FLAG-tagged human Gas6 recombinant protein (hGas6-F) (human, UniProt Q14393 31-678, gamma-carboxylated glutamic acid residues in the Gla domain (producer cells co-express rat VKOR and human GGCX); positions not given)
T1 construct: also called human Gas6-F; human Gas6 protein
T1 sequence: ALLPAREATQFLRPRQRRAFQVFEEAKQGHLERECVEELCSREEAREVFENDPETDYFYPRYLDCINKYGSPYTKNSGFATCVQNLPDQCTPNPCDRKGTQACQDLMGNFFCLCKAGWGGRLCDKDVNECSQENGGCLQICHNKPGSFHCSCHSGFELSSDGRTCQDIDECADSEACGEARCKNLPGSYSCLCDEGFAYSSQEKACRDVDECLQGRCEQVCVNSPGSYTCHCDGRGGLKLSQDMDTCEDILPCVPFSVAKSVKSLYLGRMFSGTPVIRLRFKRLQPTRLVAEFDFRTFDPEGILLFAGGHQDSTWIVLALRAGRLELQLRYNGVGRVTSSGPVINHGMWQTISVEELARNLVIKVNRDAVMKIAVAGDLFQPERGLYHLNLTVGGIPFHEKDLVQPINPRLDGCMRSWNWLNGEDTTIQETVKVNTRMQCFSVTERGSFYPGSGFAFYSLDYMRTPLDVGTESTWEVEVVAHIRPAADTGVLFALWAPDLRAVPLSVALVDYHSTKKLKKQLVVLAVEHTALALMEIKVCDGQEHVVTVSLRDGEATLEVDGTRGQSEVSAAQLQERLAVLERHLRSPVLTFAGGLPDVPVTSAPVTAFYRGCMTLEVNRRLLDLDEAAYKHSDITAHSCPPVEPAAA
Test: competitive ELISA, inhibition of hGas6-F binding to immobilised hAxl-hFc
Exercise: state measured IC50 for each of the binders provided.
State just the number; it will be interpreted in mg/L.

Query block: State the recorded IC50 for this entry: KM5320 chimeric antibody (antibody, V domains shown, also called KM5320 chimera; A-01) VH: QIQLVQSGPELKKPGETVKISCKASGYTFTNYGMNWVKQAPGKGLKWMGWINTETGEPTYSDDFKGRFAFSLETSATTAYLQINNLRNEDMATYFCAREDGYYGTLDYWGQGTSVTVSS VL: SIVMTQTPKFLLVSAGDRVTITCKASQSVSNDVAWYQQKPGQSPKVLIYYASNRYTGVPDRFTGSGYGTDFTFTISTVQAEDLAVYFCQQDYSSPWTFGGGTKLEIK
Result block: 0.0218

Query block: What IC50 value was documented for this binder, hzKM5321 LV7bHV0 antibody (antibody, V domains shown, Humanized; variant human IgG4 constant region (EU S228P, L235E, R409K), human kappa; also called B-10; LV7bHV0) VH: QVHLVQSGSELKKPGASVKISCKASGYTFTNYGMNWVRQAPGQGLEWMGWINTNTGEPTYTEEFKGRFVFSLDTSVTTSYLQISTLKAEDTAVYFCARDEGWFVYWGQGTLVTVSS VL: ETTVTQSPSSLSVSVGDRVTITCITSTDIDDDMNWYQQKPGKAPKLLISEGNTLRPGVPSRFSSSGSGTDFTFTISSTQPEDFADYYCLQTDSVPLTFGQGTKLEIK ?
Result block: 0.0118

Query block: # input binder: hzKM5320 LV1bHV0 antibody (antibody, V domains shown, Humanized; variant human IgG4 constant region (EU S228P, L235E, R409K), human kappa; also called A-04) VH: QVQLVQSGSELKKPGASVKVSCKASGYTFTNYGMNWVRQAPGQGLEWMGWINTETGEPTYSDDFKGRFVFSLDTSVSTAYLQISSLKAEDTAVYYCAREDGYYGTLDYWGQGTTVTVSS VL: DVVMTQSPDSLAVSLGERVTINCKASQSVSNDVAWYQQKPGQSPKLLIYYASNRYTGVPDRFSGSGSGTDFTLTISSVQAEDVAVYYCQQDYSSPWTFGQGTKLEIK ; wanted: its IC50
Result block: 0.742

Query block: Reported IC50 for KM5321 chimeric antibody (antibody, V domains shown, also called KM5321 chimera; B-01) VH: QIQLVQSGPELKKPGETVKISCRASGYTFTNYGMNWVKQAPGKGLKWMGWINTNTGEPTYTEEFKGRFAFSLETSATTAYLQINDLKNEDTATYFCARDEGWFVYWGQGTLITVSA VL: ETTVTQSPASLSVATGEKVTIRCITSTDIDDDMNWYQQKPGEPPKLLISEGNTLRPGVPSRFSSSGYGTDFVFTIENTLSEDVADYYCLQTDSVPLTFGAGTKLELK : what is it?
Result block: 0.0123
